Molecular target: Peroxisome proliferator-activated receptor gamma (Homo sapiens, UniProt P37231)
Sequence (P37231 whole entry): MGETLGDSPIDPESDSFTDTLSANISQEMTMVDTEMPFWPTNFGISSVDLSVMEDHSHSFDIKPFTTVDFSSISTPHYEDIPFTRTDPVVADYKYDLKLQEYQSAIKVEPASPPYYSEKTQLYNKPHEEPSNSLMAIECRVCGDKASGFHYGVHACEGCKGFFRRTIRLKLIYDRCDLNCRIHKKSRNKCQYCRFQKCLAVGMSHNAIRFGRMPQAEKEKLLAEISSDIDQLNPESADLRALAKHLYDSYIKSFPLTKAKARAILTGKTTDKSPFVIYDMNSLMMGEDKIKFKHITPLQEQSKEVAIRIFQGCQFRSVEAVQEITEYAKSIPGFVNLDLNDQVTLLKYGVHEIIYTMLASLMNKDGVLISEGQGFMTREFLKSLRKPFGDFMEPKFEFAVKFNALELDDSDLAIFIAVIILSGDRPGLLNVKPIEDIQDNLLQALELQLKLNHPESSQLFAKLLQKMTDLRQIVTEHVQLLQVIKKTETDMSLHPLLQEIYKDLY
pKd: −log10 of the molar value.
metricName: pKd

Record CCc1ccc(N(CC(C)C)S(=O)(=O)c2ccc(OCC3CCOCC3)c([S@@](C)(=N)=O)c2)cc1 : what is its pKd with Peroxisome proliferator-activated receptor gamma (Homo sapiens, UniProt P37231)?
< 5.00

###

Test: Stability of the compound in PG/EtOH96 (3/7) solution at 40 degC after 1 month by HPLC analysis
Format: physicochemical
Conditions: read-out: Stability
metricName: remaining at 730.5 h

Please give the measured remaining at 730.5 h for this molecule: CCc1ccc(N(CC(C)C)S(=O)(=O)c2ccc(OCC3CCOCC3)c([S@@](C)(=N)=O)c2)cc1
> 98%
